- measured target: human GnRH receptor (Homo sapiens)
- Sequence (P30968 1-328): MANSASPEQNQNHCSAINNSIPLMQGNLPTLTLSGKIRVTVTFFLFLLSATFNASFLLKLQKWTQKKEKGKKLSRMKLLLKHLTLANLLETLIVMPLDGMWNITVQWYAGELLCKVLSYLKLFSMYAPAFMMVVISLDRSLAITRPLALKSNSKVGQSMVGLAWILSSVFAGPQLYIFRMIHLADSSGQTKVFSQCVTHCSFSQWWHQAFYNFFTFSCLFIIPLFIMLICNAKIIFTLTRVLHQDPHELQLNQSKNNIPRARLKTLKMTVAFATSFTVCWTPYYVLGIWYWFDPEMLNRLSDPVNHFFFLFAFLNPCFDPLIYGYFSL
- assay procedure: IP-One HTRF assay with buserelin (at EC80) stimulation
- condition info: CHO cells stably expressing human GnRH receptor, read-out: Potency in IP-One HTRF assay, given as IC50
Provide the reported pIC50 of each item.
// pIC50: -log10(molar conc.)

Request: Item N#Cc1ccc(S(=O)(=O)N2c3ccc(C(=O)Nc4ccccc4Cl)cc3C3(CCS(=O)(=O)CC3)C2C2CC2)cc1 (stereo not shown) [Example 74] has what recorded pIC50?
Result: 7.18

Request: Entry CN(C)C(=NS(=O)(=O)c1cccc(NC(=O)c2ccc3c(c2)C2(CCS(=O)(=O)CC2)C(C2CC2)N3S(=O)(=O)c2ccc(F)cc2)c1)N(C)C (single isomer, unassigned) [Example 64.1] : reported pIC50 = ?
Result: 8.34

Request: So what's the measured pIC50 for this one? N#Cc1cccc(S(=O)(=O)N2c3ccc(C(=O)Nc4ncco4)cc3C3(CCS(=O)(=O)CC3)C2C2CC2)c1 (stereo not shown) [Example 78]
Result: 6.15

Request: Need pIC50, item COc1cccc(S(=O)(=O)N2c3ccc(C(=O)NCc4ccccc4Cl)cc3C3(CCS(=O)(=O)CC3)C2C2CC2)c1 (single isomer, unassigned) [Example 44.1]
Result: 7.60

Request: Request the reported pIC50 associated with NC(=O)c1ccc(S(=O)(=O)N2c3ccc(C(=O)Nc4cccc(S(=O)(=O)Nc5nccs5)c4)cc3C3(CCS(=O)(=O)CC3)C2C2CC2)cc1 (stereo not shown) [Example 96]
Result: 6.32

Request: What value of pIC50 has been recorded for this entry: CN(C)S(=O)(=O)c1cccc(NC(=O)c2ccc3c(c2)C2(CCS(=O)(=O)CC2)C(C2CC2)N3S(=O)(=O)c2ccc(F)cc2)c1 (stereo not shown) [Example 37]
Result: 7.11

Request: Consider the compound COc1cccc(S(=O)(=O)N2c3ccc(C(=O)Nc4cccc(S(=O)(=O)N(C)C)c4)cc3C3(CCS(=O)(=O)CC3)C2C2CC2)c1 (stereo not shown) [Example 43] and give its measured pIC50.
Result: 7.25

Request: I would be grateful if you could share the reported pIC50 for COc1cccc(S(=O)(=O)N2c3ccc(C(=O)NCc4ccccc4F)cc3C3(CCS(=O)(=O)CC3)C2C2CC2)c1 (stereo not shown) [Example 47] .
Result: 6.88

Request: I am curious: what pIC50 value has been reported for COc1cccc(S(=O)(=O)N2c3ccc(C(=O)NCc4ccccc4F)cc3C3(CCS(=O)(=O)CC3)C2C2CC2)c1 (single isomer, unassigned) [Example 47.2] ?
Result: 5.05

Request: For the compound shown here, N#Cc1ccc(S(=O)(=O)N2c3ccc(C(=O)Nc4cncc(Cl)c4)cc3C3(CCS(=O)(=O)CC3)C2C2CC2)cc1 (single isomer, unassigned) [Example 71.2] , give the reported pIC50.
Result: 5.79

Request: Dear colleague, I am looking for the recorded pIC50 of the following compound: COC(=O)c1cccc(S(=O)(=O)N2c3ccc(C(=O)NCc4ccccc4Cl)cc3C3(CCS(=O)(=O)CC3)C2C2CC2)c1 (single isomer, unassigned) [Example 60.1]
Result: 7.26

Request: State the recorded pIC50 for this entry: N#Cc1ccc(S(=O)(=O)N2c3ccc(C(=O)NCc4ccccc4C(F)(F)F)cc3C3(CCS(=O)(=O)CC3)C2C2CC2)cc1 (single isomer, unassigned) [Example 72.2]
Result: 6.39

Request: I'd like to know its pIC50. The compound in question is N#Cc1ccc(S(=O)(=O)N2c3ccc(C(=O)NCc4ncccc4Cl)cc3C3(CCS(=O)(=O)CC3)C2C2CC2)cc1 (single isomer, unassigned) [Example 70.1]
Result: 7.48

Request: Could you tell me which pIC50 is on file for COc1cccc(S(=O)(=O)N2c3ccc(C(=O)Nc4cccc(S(N)(=O)=O)c4)cc3C3(CCS(=O)(=O)CC3)C2C2CC2)c1 (stereo not shown) [Example 42] ?
Result: 7.02

Request: Item O=C(NCc1ccccc1Cl)c1ccc2c(c1)C1(CC[S+]([O-])CC1)C(C1CC1)N2S(=O)(=O)c1ccc(F)cc1 (single isomer, unassigned) [Example 13.1] has what recorded pIC50?
Result: 7.92

Request: Entry under review: O=C(NCC1CCCC1)c1ccc2c(c1)C1(CCS(=O)(=O)CC1)C(C1CC1)N2S(=O)(=O)c1ccc(F)cc1 (stereo not shown) [Example 38] . Reported pIC50?
Result: 6.87
